Values of MIC reported for Candida albicans appear below.
Please state the figure in µM; there is no need to write the unit.

Known MIC results, listed for orientation:
[ask] Item CC(=O)N[C@@H](CCCCN)C(=O)N[C@@H](Cc1ccc(O)cc1)C(=O)N[C@H](C(=O)NCC(=O)N[C@@H](CCCCN)C(=O)N[C@@H](CS)C(=O)N[C@H](C(=O)N[C@@H](CCCCN)C(=O)N[C@@H](CO)C(=O)N[C@@H](CCCCN)C(=O)N[C@@H](CC(N)=O)C(=O)N[C@@H](CCC(=O)O)C(=O)N[C@@H](CS)C(=O)N[C@@H](CCCCN)C(N)=O)[C@@H](C)O)[C@@H](C)O [KYTGKCTKSKNECK] with Candida albicans - MIC?
[reply] 10

[ask] Item CC[C@H](C)[C@H](NC(=O)[C@H](CCCN=C(N)N)NC(=O)[C@H](CCCN=C(N)N)NC(=O)[C@H](CC(C)C)NC(=O)[C@@H](N)CCCN=C(N)N)C(=O)N[C@H](C(=O)N[C@H](C(=O)N[C@H](C(=O)N[C@@H](CCCN=C(N)N)C(=O)N[C@H](C(=O)N[C@@H](Cc1ccccc1)C(=O)N[C@@H](CCCN=C(N)N)C(=O)O)C(C)C)[C@@H](C)CC)C(C)C)C(C)C [RLRRIVVIRVFR] with Candida albicans - MIC?
[reply] 16

[ask] Item CC[C@H](C)[C@H](NC(=O)[C@@H](NC(=O)[C@@H](NC(=O)[C@H](CCCN=C(N)N)NC(=O)[C@H](CCCN=C(N)N)NC(=O)[C@H](CCC(N)=O)NC(=O)[C@@H](N)CCCN=C(N)N)C(C)C)C(C)C)C(=O)N[C@@H](Cc1c[nH]c2ccccc12)C(=O)N[C@@H](Cc1c[nH]c2ccccc12)C(=O)O [RQRRVVIWW] with Candida albicans - MIC?
[reply] 21.4

[ask] Item CC(C)C[C@H](NC(=O)[C@H](Cc1cnc[nH]1)NC(=O)[C@H](CO)NC(=O)[C@H](C)NC(=O)[C@H](CC(C)C)NC(=O)[C@@H](NC(=O)[C@@H](NC(=O)[C@H](CC(C)C)NC(=O)[C@H](CC(C)C)NC(=O)[C@H](CO)NC(=O)[C@H](Cc1cnc[nH]1)NC(=O)[C@H](CO)NC(=O)[C@H](CC(C)C)NC(=O)[C@H](CC(C)C)NC(=O)[C@H](CCCCN)NC(=O)[C@H](Cc1ccccc1)NC(=O)[C@H](CCCN=C(N)N)NC(=O)[C@@H](N)CCCN=C(N)N)C(C)C)[C@@H](C)O)C(=O)O [RRFKLLSHSLLVTLASHL] with Candida albicans - MIC?
[reply] 2.99

Next molecule, MIC to be filled in.
[ask] Item CC[C@H](C)[C@H](NC(=O)[C@H](CCCN=C(N)N)NC(=O)[C@@H](NC(=O)[C@@H](NC(=O)[C@@H](NC(=O)[C@H](CCCN=C(N)N)NC(=O)[C@@H](NC(=O)[C@@H](N)CCCN=C(N)N)[C@@H](C)CC)[C@@H](C)CC)[C@@H](C)CC)[C@@H](C)CC)C(=O)N[C@@H](CCCN=C(N)N)C(N)=O [RIRIIIRIR] with Candida albicans - MIC?
[reply] 2

* * *

Values of MIC reported for Staphylococcus epidermidis KCTC 1917 appear below.
Please state the figure in µM; there is no need to write the unit.

[ask] Item NC(=O)[C@H](CCCN=C(N)N)NC(=O)[C@H](CCCN=C(N)N)NC(=O)[C@H](Cc1c[nH]c2ccccc12)NC(=O)[C@H](CCCN=C(N)N)NC(=O)[C@H](CCCN=C(N)N)NC(=O)[C@H](Cc1c[nH]c2ccccc12)NC(=O)[C@H](CCCN=C(N)N)NC(=O)[C@H](CCCN=C(N)N)NC(=O)[C@H](Cc1c[nH]c2ccccc12)NC(=O)[C@H](CCCN=C(N)N)NC(=O)[C@@H](N)CCCN=C(N)N with Staphylococcus epidermidis KCTC 1917 - MIC?
[reply] 2

More entries:
[ask] Item CC[C@H](C)[C@H](N)C(=O)N[C@@H](CC(C)C)C(=O)NCC(=O)N[C@@H](CCCCN)C(=O)N[C@H](C(=O)N[C@@H](Cc1c[nH]c2ccccc12)C(=O)N[C@@H](CCCCN)C(=O)N1CCC[C@H]1C(=O)N[C@H](C(=O)N[C@@H](CCCCN)C(=O)N[C@@H](CCCCN)C(=O)N[C@@H](CC(C)C)C(=O)N[C@@H](Cc1ccccc1)C(N)=O)[C@@H](C)CC)[C@@H](C)CC with Staphylococcus epidermidis KCTC 1917 - MIC?
[reply] 1

[ask] Item CC[C@H](C)[C@H](NC(=O)[C@H](CCCCN)NC(=O)[C@H](CC(C)C)NC(=O)[C@H](CC(C)C)NC(=O)[C@@H](N)CCCCN)C(=O)N[C@H](C(=O)N[C@H](C(=O)N[C@H](C(=O)N[C@@H](CCCCN)C(=O)N[C@H](C(=O)N[C@@H](CC(C)C)C(=O)N[C@@H](CCCCN)C(N)=O)C(C)C)[C@@H](C)CC)C(C)C)C(C)C with Staphylococcus epidermidis KCTC 1917 - MIC?
[reply] 8.97
